Values compiled from patent US12043670B2.

Test system: LP-1 cells
experiment_notes: 6-day CellTiter-Glo cell viability, LP-1
Assay type: cell-based, human
particulars: LP1 cells, 6 days; negative = cell death vs T0
Where a SMILES comes first, the peptide text is derived from it. [ ]: non-standard residue; d: D form. Dolaproine = CO[C@@H]([C@@H]1CCCN1)[C@@H](C)C(=O)O; Dil = CC[C@H](C)[C@H](NC)[C@@H](CC(=O)O)OC; NMeV = CN[C@H](C(=O)O)C(C)C
Collected RminAve values appear next to each entry.
The reply must contain the numeric value and, after it, the unit.

Worked examples, 3 molecules total:
- molecule: "CC[C@H](C)[C@@H]([C@@H](CC(=O)N1CCC[C@H]1[C@H](OC)[C@@H](C)C(=O)N[C@@H](Cc1ccccc1)C(=O)O)OC)N(C)C(=O)[C@@H](NC(=O)[C@@H](NC)C(C)C)C(C)C [MMAF] (H-[NMeV]V[Dil][Dolaproine]F-OH)"
  experimental_result: "−97.9742%"
- molecule: "N.N.[Cl][Pt][Cl] [cisplatin]"
  experimental_result: "−97.8184%"
- molecule: "CC[C@H](O)[C@@H](C)[C@H]1O[C@@H]1C[C@@](C)(O)/C=C/C=C(\\C)[C@H]1OC(=O)C[C@H](O)CC[C@@](C)(O)[C@@H](OC(=O)N2CCNCC2)/C=C/[C@@H]1C [D1]"
  experimental_result: "−99.7195%"

Now take the following molecule into account.
Ask | API: value(readout= RminAve, system= LP-1 cells, query= CC[C@H](O)[C@@H](C)[C@H]1O[C@@H]1C[C@@](C)(O)/C=C/C=C(\C)[C@H]1OC(=O)C[C@H](O)CC[C@@](C)(O)[C@@H](OC(=O)N2CCN(C3CCCCCC3)CC2)/C=C/[C@@H]1C [E7107 (D11)] )
Reply | −99.6676%

====

experiment_notes: Caco-2 permeability
Assay type: in vitro ADME
particulars: human, B-A/A-B
Measured efflux ratio at 2 h, 10 μM accompanies every entry in the list below.
Write the value as a bare number.

- molecule: "CC[C@H](O)[C@@H](C)[C@H]1O[C@@H]1C[C@@](C)(O)/C=C/C=C(\\C)[C@H]1OC(=O)C[C@H](O)CC[C@@](C)(O)[C@@H](OC(=O)N2CCNCC2)/C=C/[C@@H]1C [D1]"
  efflux ratio at 2 h, 10 μM: 1.5

Ask | I am curious: what efflux ratio at 2 h, 10 μM value has been reported for CC[C@H](O)[C@@H](C)[C@H]1O[C@@H]1C[C@@](C)(O)/C=C/C=C(\C)[C@H]1OC(=O)C[C@H](O)CC[C@@](C)(OC(C)=O)[C@@H](OC(=O)N2CCNCC2)/C=C/[C@@H]1C [D2] ?
Reply | 9.4

====

Test system: MOLP8 cells
experiment_notes: CellTiter-Glo cell viability, MOLP8
Format: cell-based, human
particulars: MOLP8 cells, 6 days; negative = cell death vs T0
Where a SMILES comes first, the peptide text is derived from it. [ ]: non-standard residue; d: D form. Dolaproine = CO[C@@H]([C@@H]1CCCN1)[C@@H](C)C(=O)O; Dil = CC[C@H](C)[C@H](NC)[C@@H](CC(=O)O)OC; NMeV = CN[C@H](C(=O)O)C(C)C
readout: RminAve (%)
Write the value in % as a bare number.

// below: answered compounds
- compound: "CC[C@H](O)[C@@H](C)[C@H]1O[C@@H]1C[C@@](C)(O)/C=C/C=C(\\C)[C@H]1OC(=O)C[C@H](O)CC[C@@](C)(O)[C@@H](OC(=O)N2CCN(C3CCCCCC3)CC2)/C=C/[C@@H]1C [E7107 (D11)]"
  unit_abbreviation: "%"
  RminAve: "−99.6765"
- compound: "CC[C@H](C)[C@@H]([C@@H](CC(=O)N1CCC[C@H]1[C@H](OC)[C@@H](C)C(=O)N[C@@H](Cc1ccccc1)C(=O)O)OC)N(C)C(=O)[C@@H](NC(=O)[C@@H](NC)C(C)C)C(C)C [MMAF] (H-[NMeV]V[Dil][Dolaproine]F-OH)"
  unit_abbreviation: "%"
  RminAve: "−58.9492"

Ask | // query RminAve value for entry N.N.[Cl][Pt][Cl] [cisplatin]
Reply | −99.8824

Ask | Try CC[C@H](O)[C@@H](C)[C@H]1O[C@@H]1C[C@@](C)(O)/C=C/C=C(\C)[C@H]1OC(=O)C[C@H](O)CC[C@@](C)(O)[C@@H](OC(=O)N2CCNCC2)/C=C/[C@@H]1C [D1] next.
Reply | −99.755
